Recorded measurements of Max binding intensity (MFI), one per entry
Target: human CD123 on CHO cells expressing human CD123 (human) (UniProt P26951)
Sequence (P26951 19-378): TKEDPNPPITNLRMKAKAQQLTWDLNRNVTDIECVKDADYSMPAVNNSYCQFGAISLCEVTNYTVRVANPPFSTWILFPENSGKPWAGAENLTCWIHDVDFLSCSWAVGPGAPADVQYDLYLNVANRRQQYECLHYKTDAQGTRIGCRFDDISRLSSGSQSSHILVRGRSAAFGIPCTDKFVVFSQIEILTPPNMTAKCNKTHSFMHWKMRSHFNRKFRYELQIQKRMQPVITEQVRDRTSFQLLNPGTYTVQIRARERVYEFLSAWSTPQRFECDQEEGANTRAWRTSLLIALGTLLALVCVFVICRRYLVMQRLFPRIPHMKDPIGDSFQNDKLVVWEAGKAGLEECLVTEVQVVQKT
Test: flow cytometry on CHO cells expressing human CD123, 4-parameter fit
Your answer should be a plain number; it is taken to be in MFI.

| binder | assay.result |
| --- | --- |
| h32716-2-1 IgG (antibody, V domains shown) VH: QVQLVQSGAEVKKPGSSVKVSCKASGYIFTNYGMNWVKQAPGQGLEWMGWINTYTGESTYSADFKGRFTFTLDESTSTAYMELSSLRSEDTAVYYCARSGGYDPMDYWGQGTLVTVSS VL: DIVMTQSPDSLAVSLGERATINCRASESVDNYGNTFMHWYQQKPGQPPKLLIYRASNLESGVPDRFSGSGSGTDFTLTISSLQAEDVAVYYCQQSNEDPPTFGQGTRLEIK | 930000 |

Moving on to another binder below.
Per the records, this binder ( h32716-3-1 IgG (antibody, V domains shown) VH: QVQLVQSGAEVKKPGSSVKVSCKASGYIFTNYGMNWVKQAPGQGFKWMGWINTYTGESTYSADFKGRFTFTLDESTSTAYMELSSLRSEDTAVYYCARSGGYDPMDYWGQGTLVTVSS VL: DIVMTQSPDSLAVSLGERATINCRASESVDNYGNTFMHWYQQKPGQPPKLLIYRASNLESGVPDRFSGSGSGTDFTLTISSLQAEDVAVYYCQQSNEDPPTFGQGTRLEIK ) has Max binding intensity (MFI) equal to 940000
